Cited source: PubChem BioAssay

# Target Or Test System: Homeobox protein Hox-A13 (Mus musculus) (UniProt Q62424)
# Sequence (Q62424 whole entry, looked up): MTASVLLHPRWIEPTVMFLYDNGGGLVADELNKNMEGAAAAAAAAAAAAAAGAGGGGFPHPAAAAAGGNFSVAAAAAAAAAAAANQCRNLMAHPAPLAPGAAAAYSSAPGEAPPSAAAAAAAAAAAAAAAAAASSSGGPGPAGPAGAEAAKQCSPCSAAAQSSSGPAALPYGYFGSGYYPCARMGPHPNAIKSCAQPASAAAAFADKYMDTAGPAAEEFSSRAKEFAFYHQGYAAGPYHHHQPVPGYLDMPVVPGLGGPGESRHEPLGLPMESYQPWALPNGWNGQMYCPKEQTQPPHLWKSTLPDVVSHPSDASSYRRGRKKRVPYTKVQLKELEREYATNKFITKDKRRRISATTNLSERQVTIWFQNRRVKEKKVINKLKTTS
# Test Summary: inhibitors of HoxA13-DNA binding, primary screen, biochemical, fluorescence polarization, labeled oligonucleotide (AID 1185)
# Study Conditions: 15 min, higher = more signal, called active from +8 up or from −8 down
Value Kind: z-score
Give only the figure.

Example entries and their recorded answers appear below.
Compound	Value Kind	Reported Result
C=CCOC(=O)[C@H]1[C@@H]2C(=O)O[C@@H](c3ccccc3)[C@@H](c3ccccc3)N2[C@@H](c2ccc(OCCOC(=O)[C@@H]3C[C@@H]4C(=O)N[C@@H](Cc5ccccc5)C(=O)N4[C@@H]3c3ccc(O)cc3)cc2)[C@]12C(=O)Nc1ccc(I)cc12	z-score	0.703
CCOC(=O)C1=C[C@@H](C(C)(C)C)N(S(=O)(=O)c2ccc(C)cc2)[C@H]1c1ccc(OC)cc1	z-score	-0.488
O=C1C2C=CC(C(O)C3CC=CCC3)N(Nc3ccc([N+](=O)[O-])cc3)C2C(=O)N1c1ccccc1 (stereo unspecified)	z-score	-3.86
COC(=O)C(CC#Cc1ccc2c(c1)[C@]1(C(=O)N2)[C@H](C(=O)N2CCCCCCC2)[C@H]2C(=O)O[C@H](c3ccccc3)[C@H](c3ccccc3)N2[C@@H]1c1ccc(OCCO)cc1)C(=O)OC	z-score	-6.85
COC(=O)[C@H]1N=C(c2ccc(OCCCO)cc2)O[C@H]1c1ccccc1N=[N+]=[N-]	z-score	-4.13

Qu. Item under review: COc1ccc([Si](C)(C)[C@H]2[C@H](CC(=O)N(CCO)Cc3ccccc3)O[C@@]3(C(=O)N(c4ccccc4)c4ccccc43)[C@@H]2C)cc1 . Reported z-score?
Ans. -5.46
